# method-description: Half-life determination in human plasma (LC-MS)
# Type: in vitro ADME
# experimental-setup: 37° C.
Listed here are molecules together with their documented half-life.
Express your answer in h, writing the number without its unit.

CCc1c2c(nc3ccc(O)cc13)-c1cc3c(c(=O)n1C2)COC(=O)[C@@]3(CC)OC(=O)CNC(=O)CCC(=O)NCCOCCOCC(=O)NCCOCCOCC(=O)NCCOCCOCC(=O)NCCOCCOCC(=O)NCCN1CCN(CC(=O)N[C@H](Cc2ccccc2)C(=O)N[C@H]2CSSC[C@@H](C(=O)N[C@H](C(N)=O)[C@@H](C)O)NC(=O)[C@H](CC)NC(=O)[C@H](CCCCN)NC(=O)[C@@H](Cc3c[nH]c4ccccc34)NC(=O)[C@H](Cc3ccc(O)cc3)NC2=O)CC1
6.9

Consider the record given below.
Entry under review: CC[C@@H]1NC(=O)[C@H](CCCCN)NC(=O)[C@@H](Cc2c[nH]c3ccccc23)NC(=O)[C@H](Cc2ccc(O)cc2)NC(=O)[C@@H](NC(=O)[C@@H](Cc2ccccc2)NC(=O)CN2CCN(CCNC(=O)COCCOCCNC(=O)COCCOCCNC(=O)COCCOCCNC(=O)COCCOCCNC(=O)CCC(=O)N[C@@H](CC)C(=O)O[C@]3(CC)C(=O)OCc4c3cc3n(c4=O)Cc4cc5ccccc5nc4-3)CC2)CSSC[C@@H](C(=O)N[C@H](C(N)=O)[C@@H](C)O)NC1=O . Reported half-life? 0.7
